Where these numbers come from: patent US10662164B2

- EXPERIMENT_NOTES: Fast pharmacokinetic (PK) studies
- Assay type: in vivo, mouse
- EXPERIMENTAL_SETUP: ICR, mouse, plasma; compound 1 at 50 mg/kg iv; read-out: AUC0-8 h
READOUT_KIND: AUC(0-t) (ng·h/mL)

1. Oc1ccc(-c2nc(-c3ccc(Oc4ccc(C(F)(F)F)cc4)cc3)no2)cc1
44200

###

- System: S. aureus ATCC 29213
- EXPERIMENT_NOTES: MIC determination
- Format: cell-based, Staphylococcus aureus
- EXPERIMENTAL_SETUP: S. aureus ATCC 29213; compounds of Schemes 3-4
READOUT_KIND: antibacterial activity in words (SAR, ring A derivatives)

1) FC(F)(F)c1ccc(Oc2ccc(-c3noc(-c4nc[nH]n4)n3)cc2)cc1 [Compound 116b]
No activity
2) FC(F)(F)c1ccc(Oc2ccc(-c3noc(-c4n[nH]cc4NC4CCCCC4)n3)cc2)cc1 [Compound 106b]
did not extend
3) CCCCNc1c[nH]nc1-c1nc(-c2ccc(Oc3ccc(C(F)(F)F)cc3)cc2)no1 [Compound 104b]
did not extend
4) [O-][n+]1ccc(-c2nc(-c3ccc(Oc4ccccc4)cc3)no2)cc1 [Compound 115a]
No activity
5) c1ccc(Oc2ccc(-c3noc(-c4ccc5[nH]ncc5c4)n3)cc2)cc1 [Compound 124a]
No activity
6) FC(F)(F)c1ccc(Oc2ccc(-c3noc(-c4cnn[nH]4)n3)cc2)cc1 [Compound 117b]
No activity
7) CCC(C)Nc1c[nH]nc1-c1nc(-c2ccc(Oc3ccc(C(F)(F)F)cc3)cc2)no1 (centres unmarked) [Compound 105b]
did not extend
8) O=[N+]([O-])c1c[nH]c(-c2nc(-c3ccc(Oc4ccc(F)cc4)cc3)no2)c1 [Compound 78c]
No activity
9) Nc1c[nH]c(-c2nc(-c3ccc(Oc4ccc(F)cc4)cc3)no2)c1 [Compound 126c]
No activity
10) FC(F)(F)c1ccc(Oc2ccc(-c3noc(-c4n[nH]cc4NC4CCCC4)n3)cc2)cc1 [Compound 107b]
did not extend
11) c1ccc(Oc2ccc(-c3noc(-c4ccncc4)n3)cc2)cc1 [Compound 114a]
No activity

###

- System: E. faecalis ATCC 29212
- EXPERIMENT_NOTES: MIC determination
- Format: cell-based
- EXPERIMENTAL_SETUP: Enterococcus faecalis, ATCC29212; quality-control strain; Tables 1 and 5; read-out: MIC
READOUT_KIND: MIC

1) Fc1ccc(Oc2ccc(-c3noc(-c4n[nH]cc4Cl)n3)cc2)cc1 [Compound 60c]
> 128 µg/mL
2) Oc1ccc(-c2nc(-c3ccc(Oc4ccccc4)cc3Cl)no2)cc1 [Compound 52a]
4 µg/mL
3) [N-]=[N+]=Nc1cc(-c2noc(-c3ccc(O)cc3)n2)ccc1Oc1ccccc1 [Compound 53a]
2 µg/mL
4) C#Cc1c[nH]nc1-c1nc(-c2ccc(Oc3ccc(C(F)(F)F)cc3)cc2)no1 [Compound 66b]
> 128 µg/mL
5) Oc1ccc(-c2nc(-c3ccc(Oc4ccc(C(F)(F)F)cc4)cc3)no2)cc1
2 µg/mL
6) Oc1ccc(-c2nc(-c3ccc(Oc4ccccc4)c(O)c3)no2)cc1 [Compound 51a]
8 µg/mL
7) FC(F)(F)c1ccc(Oc2ccc(-c3noc(-c4n[nH]cc4Cl)n3)cc2)cc1 [Compound 60b]
> 128 µg/mL
8) CC(=O)NC[C@H]1CN(c2ccc(N3CCOCC3)c(F)c2)C(=O)O1 [linezolid, reference compound]
2 µg/mL
